System: Rattus norvegicus
ASSAY_NAME: Kidneys uptake in percent injected dose/gram (range) was determined in female fischer rat after 1251-labelled compound complexed with bovine serum albumin was injected intravenously after 60 minutes
Type: functional
EXPERIMENTAL_ENDPOINT: Activity (%)
Supply the numeric figure in %, leaving out any unit text.

Request: Write Activity of CC(CCCCCCCCCCCCc1ccc(I)cc1)C(=O)O (racemic) ; system used: Rattus norvegicus
Response: 1.85

Request: Write Activity of `O=C(O)CCCCCCCCCCCCCc1ccc(I)cc1` ; system used: Rattus norvegicus
Response: 1.94

Request: Write Activity of O=C(O)CCCCCCCCCCCCCCc1ccc(I)cc1 [IOCANLIDIC ACID] ; system used: Rattus norvegicus
Response: 1.05

Request: Write Activity of CC(CCCCCCCCCCCCc1ccc(I)cc1)CC(=O)O (racemic) [IODOFILTIC ACID] ; system used: Rattus norvegicus
Response: 2.14
